- system_under_test: T1, cynomolgus monkey B7-H7 on the cell surface (cynomolgus monkey)
- T1 construct: whole, on cells; also called cyno B7-H7
- test_method_notes: flow cytometry, HEK-293/cyno B7-H7 cells
property_measured: pEC50
Worth noting: pEC50 values are minus log10 of concentrations stated in mol/L.

[ask] Any idea what its pEC50 is? The binder is PR003252 (antibody, human IgG1, kappa, V domains shown, Human IgG1; also called 53C12D4) VH: QVQLVESGGGVVQPGRSLRLSCAASGFTFSNYAMHWVRQVPGKGLEWVALIWYDGSEKYYADSVKGRFTISRDDSKNTLFLQMSSLRAEDTAVYSCVREYSSGWGYFDYWGQGTQVTVSS VL: DIQMTQSPSTLSASVGDRVTITCRASQSISSWLAWYQQKPGKAPKLLIYKASSLKSGVPSRFSGSGSGTEFTLTISSLQPDDFATYYCLQYNSYYTFGQGTKLEIKR
[reply] 9.37

Measured values drawn from patent US20250136696A1 for this set.
